Let's look at some compounds and their measured melting point.

Completed entries (count: 4):
INSERT INTO measurements (compound, measured_value) VALUES
  ('Nc1cc(Cl)c([N+](=O)[O-])cc1OCc1ccccc1', '135 to 137 °C'),
  ('CCc1c(C)sc(N)c1C#N', '103 to 105 °C'),
  ('O=CC1=C(Sc2nc3ccccc3o2)CCCC1', '93 to 95 °C'),
  ('Cc1ccc(-c2cn[nH]c2)cc1', '217 to 219 °C');

Q: Recall and state the measured melting point for C#CCNC(C)=O .
Ans: 79 to 81 °C

====

Let's look at some compounds and their measured melting point.

Completed entries (count: 10):
INSERT INTO results (compound, measured_value) VALUES
  ('CS(=O)(=O)c1ccc(N)c(C(=O)O)c1', '239 to 241 °C'),
  ('O=C(O)c1cccc(Oc2ccc(Cl)c(Cl)c2)n1', '138 to 140 °C'),
  ('COc1ccc(Cl)cc1NC(=O)CCN', '66 to 68 °C'),
  ('CC(=O)Nc1c(Cl)cc(Br)c2ccccc12', '227 to 229 °C'),
  ('Cc1ccc(F)c(N2CCCC(Br)C2=O)c1 (stereo not drawn)', '74 to 76 °C'),
  ('O=Cc1ccc(-c2ccncc2)cc1F', '107 to 109 °C'),
  ('CC(C)c1nc2ccccc2n1CC#N', '116 to 118 °C'),
  ('CC1CN=C(Nc2cccc(S(=O)(=O)N(C)C)c2)S1 (stereo not drawn)', '111 to 113 °C'),
  ('Cc1ccccc1-n1cnnc1S', '144 to 146 °C'),
  ('O=C(O)C1Cc2cc(F)ccc2O1 (stereo not drawn)', '129 to 131 °C');

Q: Recall and state the measured melting point for CN1CCN(S(=O)(=O)c2ccc(NN)nc2)CC1 .
Ans: 168 to 170 °C

Q: Recall and state the measured melting point for C=Cn1ccnc1CO .
Ans: 103 to 105 °C

Q: Recall and state the measured melting point for CN1C(=O)CCC(CO)C1c1ccc(C(F)(F)F)cc1 (stereo not drawn) .
Ans: 95 to 97 °C
